Target: 3β-hydroxysteroid dehydrogenase type 2 (3βHSD2) (Homo sapiens)
Construct: gene HSD3B2
Assay: pregnenolone to progesterone conversion kinetics in transfected COS-1 cells, UPLC-MS/MS
Type: cell-based
Conditions: read-out: Ki
quantity.name: Ki (nM)
Give just the numeric value; nM need not be written.

Example entries and their recorded answers appear below.
{"columns": ["compound", "target.desc", "Ki / nM"],
 "data": [
  ["C=C1C[C@H]2[C@@H]3CCC4=CC(=O)CCC4[C@H]3CC[C@]2(C)C1(OC(C)=O)C(C)=O (stereo partly drawn)", "3β-hydroxysteroid dehydrogenase type 2 (3βHSD2) (Homo sapiens)", 9.5],
  ["C[C@]12CCC(=O)C=C1[C@@H]1C[C@@H]1[C@H]1[C@@H]3[C@@H]4C[C@@H]4[C@@]4(CCC(=O)O4)[C@@]3(C)CC[C@@H]12", "3β-hydroxysteroid dehydrogenase type 2 (3βHSD2) (Homo sapiens)", 232]
]}

Q) Item CC(=O)O[C@]1(C(C)=O)CC[C@H]2[C@@H]3C=C(C)C4=CC(=O)CC[C@@H]4[C@H]3CC[C@@]21C [NoMAC, nomegestrol acetate] : provide Ki
A) 29

----------
Target: 3β-hydroxysteroid dehydrogenase type 2 (3βHSD2) (Homo sapiens, UniProt P26439)
Construct: gene HSD3B2
Sequence (P26439 1-372): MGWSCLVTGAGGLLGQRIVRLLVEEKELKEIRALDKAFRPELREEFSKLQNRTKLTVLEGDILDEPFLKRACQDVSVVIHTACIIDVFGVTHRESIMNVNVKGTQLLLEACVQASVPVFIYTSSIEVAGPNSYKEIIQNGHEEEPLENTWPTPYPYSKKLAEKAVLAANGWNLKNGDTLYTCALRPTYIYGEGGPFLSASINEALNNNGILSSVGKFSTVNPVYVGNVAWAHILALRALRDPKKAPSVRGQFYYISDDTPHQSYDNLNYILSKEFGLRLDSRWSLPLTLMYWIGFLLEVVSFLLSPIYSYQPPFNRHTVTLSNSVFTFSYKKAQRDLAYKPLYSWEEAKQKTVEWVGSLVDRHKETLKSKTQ
Experiment: pregnenolone to progesterone conversion kinetics in transfected COS-1 cells, UPLC-MS/MS
Type: cell-based
quantity.name: pKi
pKi (log units): -log10 of the concentration in mol/L.

Q) Item C[C@]12CC[C@H]3[C@@H](CC[C@@]45O[C@@H]4C(O)=C(C#N)C[C@]35C)[C@@H]1CC[C@@H]2O [trilostane, reference compound] : provide pKi
A) 7.50
